# Target Or Test System: T1, human serum albumin (human, UniProt P02768 25-609)
# T1 construct: also called Human SA; HuSA
# Method Notes: phage binding
No end group written: not given here.

{"columns": ["Binder", "binding result"],
 "data": [
  ["QTELCYFPGICWNES (on phage) [HBC-H13]", "binds"],
  ["RMPASLPCYWETICYESSEQ (not fully specified (bridges); cysteine pairing not given here; also: phage-displayed, on phage) [HB-H16]", "binds"],
  ["NDEICYFPGVCWKSG (on phage) [HBC-H11]", "binds"]
]}
